assay-method-text: NCI Yeast Anticancer Drug Screen. Data for the mec2-1 strain (AID 157)
test-parameters: S. cerevisiae mec2-1 strain, at 3.7 µM, stronger effect = higher value
The panel holds about 79,000 compounds, 15% with a hit somewhere; the sample as a whole holds those more often.
Reported growth inhibition values for a set of compounds
Write the answer as a number in %, unit excluded.

Consider the following illustrative entries.
{"columns": ["compound", "growth inhibition, %"],
 "data": [
  ["CCOC(=O)c1ccc(NC(=O)O/N=C(/Cl)C(C)C)cc1", 1],
  ["Cc1nc2ccccc2nc1NNc1ccccc1", 0],
  ["O=c1[nH]c(-c2ccccc2)nc2c1sc1nc3ccccc3n12", -23],
  ["Cc1c(C(C)C)cc(OCCO)cc1C(C)C", -7],
  ["CCCCCCC(O)CNCc1ccnc2ccc(OC)cc12 (stereo not given)", 13]
]}

response.value for Cc1cc(C(C)(C)C)c(OCCCN2CCOCC2)c(C(C)(C)C)c1 (field: growth inhibition) = -5

response.value for Cc1cccc2c1nc1ccc(Cl)cc1[n+]2C (field: growth inhibition) = 18

response.value for COC1CCC(O)C(/C=C/[N+](=O)[O-])C1 (stereo not given) (field: growth inhibition) = 42

response.value for Cc1cc2c3ccccc3c3ccccc3c2nn1 (field: growth inhibition) = 0

###

assay-method-text: NCI Yeast Anticancer Drug Screen. Data for the rad14 strain (AID 159);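 further: 0% = growth of vehicle-treated control cultures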
test-parameters: S. cerevisiae rad14 strain growth inhibition; at 3.7 µM; stronger effect = higher value
This is part of a sample that, as a whole, favours compounds with a hit. Of some 79,000 tested, about 15% had one in any assay.
readout-label: growth inhibition (%)
Write the answer as a number in %, unit excluded.

{"columns": ["molecule", "growth inhibition / %"],
 "data": [
  ["CCOC(=O)C#Cc1ccc([N+](=O)[O-])cc1", -4],
  ["COc1ccc(C(NCCNC(c2ccc(OC)c(OC)c2)c2cc3c(cc2O)OCO3)c2cc3c(cc2O)OCO3)cc1OC (centres undefined)", 5],
  ["O=C(CSC(=S)N1CCCCC1)Nc1nc2c(s1)CCCC2", -14],
  ["COC(=O)Oc1cc(Cl)c(Cl)cc1Cl", 0],
  ["CCCCOCn1c(=O)[nH]c(=O)c2cc(Br)ccc21", -50],
  ["N#CC(C#N)=NNc1ccc(S(=O)(=O)O)cc1", 13],
  ["Clc1ccc2c(c1)N(CCCN1CCCC13CCCCC3)c1ccccc1S2", -7],
  ["CNC(=O)OCc1c(COC(=O)NC)c(-c2ccc(Cl)c(Cl)c2)n2c1SCC2", 2]
]}

response.value for COc1cc(C2SCC(=O)N2c2ccc(-c3ccc(-n4c(-c5ccccc5)nc5ccccc5c4=O)cc3)cc2)ccc1O (centres undefined) (field: growth inhibition) = -1

response.value for O=C1c2cccnc2C(=O)C2C3C=CC(C3)C12 (centres undefined) (field: growth inhibition) = 44

response.value for Cc1ccc2c3ccc4c(c3n(C)c2c1)C(=O)C=CC4=O (field: growth inhibition) = -12

response.value for O=C(O)c1ccc(N2C(=O)C=CC2=O)cc1 (field: growth inhibition) = -6

response.value for S=c1sc2c(s1)SCCS2 (field: growth inhibition) = -4

###

Reported growth inhibition values for a set of compounds
assay-method-text: NCI Yeast Anticancer Drug Screen. Data for the mgt1 strain (AID 153)
test-parameters: S. cerevisiae mgt1 mutant growth inhibition; at 33.0 µM; stronger effect = higher value
Compounds without any hit were thinned out: in the full panel of roughly 79,000, 15% have a hit.
Write the answer as a number in %, unit excluded.

response.value for CC1=NOC(=O)/C1=C/c1ccc2c(c1)OCO2 (field: growth inhibition) = -10

###

assay-method-text: NCI Yeast Anticancer Drug Screen. Data for the bub3 strain (AID 167)
test-parameters: S. cerevisiae bub3 mutant strain, at 33.0 µM, stronger effect = higher value
This is part of a sample that, as a whole, favours compounds with a hit. Of some 79,000 tested, about 15% had one in any assay.
Reported growth inhibition values for a set of compounds
Write the answer as a number in %, unit excluded.

Consider the following illustrative entries.
{"columns": ["compound", "growth inhibition, %"],
 "data": [
  ["COc1cc(O)c(O)c(C(C)(C)C)c1", 7],
  ["C=C1C(=O)OC2CC1C(OC(C)=O)C/C(C)=C/CC/C(C)=C\\CCC2(C)O (centres undefined)", 24],
  ["CN(C)N=Nc1ccccc1C(=O)NC#N", 99],
  ["CCOC1=C/C(=N\\Nc2ccc([N+](=O)[O-])cc2)CCC1", 15],
  ["CCOC(=O)C(C(=O)OCC)=P(c1ccccc1)(c1ccccc1)c1ccccc1", -3]
]}

response.value for Oc1ccc(O)c(Cc2ccccc2)c1 (field: growth inhibition) = 97

response.value for CC1CC[C@]2(C(=O)O)CCC3(C)C(=CC(=O)C4[C@@]5(C)CCC(=O)C(C)(C)C5CC[C@]43C)[C@@H]2[C@H]1C (some centres undefined) (field: growth inhibition) = 96

response.value for CCOC(=O)C1=C(C)NC(C)=C(C(=O)OCCNC(=O)c2ccc(N=[N+]=[N-])cc2)C1c1ccccc1C(F)(F)F (centres undefined) (field: growth inhibition) = 4

response.value for CN(C)CCOC1(Cc2ccc(F)cc2)CCC(C(C)(C)C)CC1 (centres undefined) (field: growth inhibition) = 7

response.value for Cc1cc(S(=O)(=O)Nc2nnc3cnc4ccccc4n23)c(S)cc1Cl (field: growth inhibition) = 10

response.value for N#CC1=C(N)N(/N=C/c2ccccc2)C(c2ccccc2)C1(C#N)C#N (centres undefined) (field: growth inhibition) = 93

###

assay-method-text: NCI Yeast Anticancer Drug Screen. Data for the bub3 strain (AID 167)
test-parameters: S. cerevisiae bub3 mutant strain, at 11.0 µM, stronger effect = higher value
Compounds without any hit were thinned out: in the full panel of roughly 79,000, 15% have a hit. Active and inactive are the calls of the source. Rule as the data show it: active = growth inhibition above about 70%; inactive = the rest.
Reported growth inhibition values for a set of molecules

{"columns": ["molecule", "growth inhibition"],
 "data": [
  ["c1ccc(Cc2cc(-c3ccccc3)n[nH]2)cc1", "9% (inactive)"],
  ["Cc1ccccc1N=Cc1cc(Cl)ccc1O", "-1% (inactive)"],
  ["CNC(=O)OCc1c(COC(=O)NC)c(-c2ccc(Cl)cc2)n2c1CCC2", "-55% (inactive)"],
  ["Cn1c(=O)c2c(nc(N)n2C2OC(CO)C(O)C2O)n(C)c1=O (stereo not given)", "12% (inactive)"],
  ["CN1CCN(C(=O)/C=C/C(=O)c2ccccc2)CC1", "28% (inactive)"],
  ["C#CCN(Cc1ccc2nc(N)[nH]c(=O)c2c1)c1ccc(C(=O)NC(CCC(=O)O)C(=O)O)cc1 (stereo not given)", "-18% (inactive)"]
]}

response.value for Cc1ccc(Sc2ccccc2N)cc1 (field: growth inhibition) = -10% (inactive)

response.value for Cc1cc(O)c(C(C)C)cc1C1(c2cc(C(C)C)c(O)cc2C)OC(=O)c2ccccc21 (field: growth inhibition) = -34% (inactive)

response.value for CC1=C(C(=O)NCc2ccccc2)C(c2ccccc2)C(C(=O)NCc2ccccc2)=C(C)N1 (field: growth inhibition) = 0% (inactive)

response.value for COc1cc(O)c2c(c1O)C(=O)c1cc(C)ncc1C2=O (field: growth inhibition) = 26% (inactive)

response.value for C/C(=N\Nc1ccc([N+](=O)[O-])cc1[N+](=O)[O-])c1sc(-n2nc(-c3ccccc3)cc2-c2ccccc2)nc1C (field: growth inhibition) = 46% (inactive)

response.value for O=C1OC(OC/C(Br)=C(\Br)COC2OC(=O)C(Cl)=C2Cl)C(Cl)=C1Cl (stereo not given) (field: growth inhibition) = -4% (inactive)

response.value for CN1C(=O)c2ccc3ccccc3c2C1=O (field: growth inhibition) = 37% (inactive)

response.value for N#CC(C#N)=NNc1ccc(S(=O)(=O)O)cc1 (field: growth inhibition) = -30% (inactive)

response.value for O=C1CSC(c2cccc(Cl)c2)N1c1ccc(-c2ccc(-n3c(-c4ccccc4)nc4ccccc4c3=O)cc2)cc1 (stereo not given) (field: growth inhibition) = 6% (inactive)

###

assay-method-text: NCI Yeast Anticancer Drug Screen. Data for the rad50 strain (AID 155);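 further: 0% = growth of vehicle-only cultures of the same strain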
test-parameters: S. cerevisiae rad50 strain growth inhibition; at 5.0 µM (retest, dose inferred, filed as 0.5); stronger effect = higher value
About 79,000 compounds went through this panel and 15% of them were active in at least one assay; those are over-represented in the sample as a whole.
readout-label: growth inhibition (%)
Write the answer as a number in %, unit excluded.

Consider the following illustrative entries.
{"columns": ["compound", "readout-label", "reported-value"],
 "data": [
  ["Nc1nc(N)c2nc(CNc3ccc(C(=O)NC(CCC(=O)O)C(=O)O)cc3F)cnc2n1 (stereo not drawn)", "growth inhibition", 13],
  ["O=C(CC(=O)n1nc(-c2ccccc2)c(N=Nc2ccc(Cl)cc2)c1-c1ccccc1)Nc1cccc(Cl)c1", "growth inhibition", 7],
  ["COc1ccc(C(=O)Oc2ccccc2Br)cc1", "growth inhibition", 5],
  ["CCc1c[n+]([O-])c(C)cc1[N+](=O)[O-]", "growth inhibition", 17]
]}

response.value for COc1ccc([N+](=O)[O-])c2c(NCCCN(C)C)c3ccccc3nc12 (field: growth inhibition) = 16

response.value for O=C(/C=C/c1cc(Cl)cc(Cl)c1O)c1cccc(O)c1 (field: growth inhibition) = 14

response.value for CCCCCOC(=S)SC(=O)OCC (field: growth inhibition) = 20

response.value for CCCOC(=O)C(F)C(Br)C(=O)OCCC (stereo not drawn) (field: growth inhibition) = 44

response.value for CC1=NOC(=O)/C1=C/c1ccc2c(c1)OCO2 (field: growth inhibition) = 0

response.value for O=[N+]([O-])c1cc(Cl)cnc1Br (field: growth inhibition) = -49

response.value for NC1CCCCC1N.Nc1c(N=Nc2ccc(-c3ccc(N=Nc4cc(S(=O)(=O)[O-])c5ccccc5c4N)cc3)cc2)cc(S(=O)(=O)[O-])c2ccccc12.[OH3+].[OH3+].[Pt+4] (field: growth inhibition) = 1

response.value for CN(C)N=Nc1ccccc1C(=O)NC#N (field: growth inhibition) = 18
